Attribution: ChEMBL document CHEMBL3885881

- Species: Rattus norvegicus
- Format: toxicity, organism-based, Sprague-Dawley
- Setup Conditions: in vivo, po, 15 mg/kg, 24 h, tissue Blood, route oral GAVAGE, dose level High, time 1 day, […]
- Description: DrugMatrix - Regimen: Single
Experimental Readout: ABSOLUTE MONOCYTE (cells/µL)
Give just the numeric value; cells/µL need not be written.

Enquiry: Give its ABSOLUTE MONOCYTE value. Item: CC(CCc1ccc(O)cc1)NCCc1ccc(O)c(O)c1 (stereo unspecified)
Return: 130

---

- Organism: Rattus norvegicus
- Run Description: DrugMatrix - Regimen: Daily Repeat
- Format: toxicity, organism-based, Sprague-Dawley
- Design: regimen Daily Repeat, gender Male, age 6-8 weeks
- Setup Conditions: in vivo, po, 1500 mg/kg, 72 h, tissue Plasma, route oral GAVAGE, dose level High, time 3 day, vehicle .5 % CMC
Entries and their LIPASE values follow.
Give just the numeric value; u/L need not be written.

CC(C)(Sc1cc(C(C)(C)C)c(O)c(C(C)(C)C)c1)Sc1cc(C(C)(C)C)c(O)c(C(C)(C)C)c1
9
C[C@@H](O)[C@H]1C(=O)N2C(C(=O)O)=C(S[C@@H]3CN[C@H](C(=O)N(C)C)C3)[C@H](C)[C@H]12
9
Nc1nc2c(c(=O)[nH]1)N(C=O)C(CNc1ccc(C(=O)N[C@@H](CCC(=O)O)C(=O)O)cc1)CN2 (some centres undefined)
8.67

Enquiry: Give its LIPASE value. Item: "CCOC(=O)[C@H](CCc1ccccc1)N[C@@H](C)C(=O)N1CCC[C@H]1C(=O)O"
Return: 9

---

- Organism: Rattus norvegicus
- Run Description: DrugMatrix - Regimen: Daily Repeat
- Assay type: toxicity, organism-based, Sprague-Dawley
- Set-up: regimen Daily Repeat, gender Male, age 6-8 weeks
- Setup Conditions: in vivo, po, 100 mg/kg, 72 h, tissue Plasma, route oral GAVAGE, dose level Low, time 3 day, vehicle .5 % CMC
Entries and their SODIUM values follow.
Give just the numeric value; MEQ/L need not be written.

Observe how each entry below is paired with its result.
CC[C@]1(O)CC[C@H]2[C@@H]3CCC4=CCCC[C@@H]4[C@H]3CC[C@@]21C
145
C#C[C@]1(O)CC[C@H]2[C@@H]3CCC4=Cc5oncc5C[C@]4(C)[C@H]3CC[C@@]21C
143.7
CC=Cc1ccc(O)c(OC)c1
144.93

Enquiry: Give its SODIUM value. Item: Nc1nc2c(c(=O)[nH]1)N(C=O)C(CNc1ccc(C(=O)N[C@@H](CCC(=O)O)C(=O)O)cc1)CN2 (some centres undefined)
Return: 146.13

---

- Species: Rattus norvegicus
- Run Description: DrugMatrix - Regimen: Daily Repeat
- Format: toxicity, organism-based, Sprague-Dawley
- Parameters: regimen Daily Repeat, gender Male, age 6-8 weeks
- Setup Conditions: in vivo, po, 0 mg/kg, 120 h, tissue Plasma, route oral GAVAGE, dose level Control, time 5 day, vehicle 100 % WATER
Experimental Readout: BLOOD UREA NITROGEN
Give the value; after it, write the unit.

Observe how each entry below is paired with its result.
CCCc1nn(C)c2c(=O)[nH]c(-c3cc(S(=O)(=O)N4CCN(C)CC4)ccc3OCC)nc12
14.17 mg/dL
CC[C@H]1OC(=O)[C@H](C)[C@@H](O[C@H]2C[C@@](C)(OC)[C@@H](O)[C@H](C)O2)[C@H](C)[C@@H](O[C@@H]2O[C@H](C)C[C@H](N(C)C)[C@H]2O)[C@](C)(O)C[C@@H](C)CN(C)[C@H](C)[C@@H](O)[C@]1(C)O
12.67 mg/dL
CCCCCCCCCCCCCCCC[n+]1ccccc1.[Br-]
15.33 mg/dL
Nc1ccc(S(=O)(=O)Nc2ncccn2)cc1
16.33 mg/dL
Nc1ccc(S(=O)(=O)Nc2nccs2)cc1
15.83 mg/dL

Enquiry: Give its BLOOD UREA NITROGEN value. Item: Cc1c(N(C)CS(=O)(=O)[O-])c(=O)n(-c2ccccc2)n1C.[Na+] [DIPYRONE SODIUM]
Return: 17 mg/dL

Enquiry: Give its BLOOD UREA NITROGEN value. Item: CN1C2CCCC1CC(NC(=O)c1nn(C)c3ccccc13)C2 (stereo not drawn)
Return: 15.83 mg/dL

Enquiry: Give its BLOOD UREA NITROGEN value. Item: "O=C(O)c1cc(=O)c2c(OCC(O)COc3cccc4oc(C(=O)O)cc(=O)c34)cccc2o1"
Return: 16.5 mg/dL

---

- Species on record: Rattus norvegicus
- Run Description: DrugMatrix - Regimen: Daily Repeat
- Type: toxicity, organism-based, Sprague-Dawley
- Design: regimen Daily Repeat, gender Male, age 6-8 weeks
- Setup Conditions: in vivo, po, 0 mg/kg, 120 h, tissue Plasma, route oral GAVAGE, dose level Control, time 5 day, vehicle .5 % CMC
Experimental Readout: CREATINE PHOSPHOKINASE
Give the value; after it, write the unit.

Observe how each entry below is paired with its result.
CC(=O)O[C@]1(C(C)=O)CC[C@H]2[C@@H]3C=C(Cl)C4=CC(=O)[C@@H]5C[C@@H]5[C@]4(C)[C@H]3CC[C@@]21C [CYPROTERONE ACETATE]
628.17 u/L
C[C@]12C/C(=C/O)C(=O)C[C@@H]1CC[C@@H]1[C@@H]2CC[C@@]2(C)[C@H]1CC[C@]2(C)O [OXYMETHOLONE]
148.33 u/L

Enquiry: Give its CREATINE PHOSPHOKINASE value. Item: "CC[C@]1(O)CC[C@H]2[C@@H]3CCC4=CCCC[C@@H]4[C@H]3CC[C@@]21C"
Return: 184.67 u/L

Enquiry: Give its CREATINE PHOSPHOKINASE value. Item: CC(C(=O)O)c1ccc(-c2ccccc2)c(F)c1 (centres undefined) [FLURBIPROFEN]
Return: 231.83 u/L

---

- Species on record: Rattus norvegicus
- Run Description: DrugMatrix - Regimen: Daily Repeat
- Type: toxicity, organism-based, Sprague-Dawley
- Design: regimen Daily Repeat, gender Male, age 6-8 weeks
- Setup Conditions: in vivo, po, 0 mg/kg, 72 h, tissue Plasma, route oral GAVAGE, dose level Control, time 3 day, vehicle 100 % SALINE
Experimental Readout: LIPASE

CCCc1nn(C)c2c(=O)[nH]c(-c3cc(S(=O)(=O)N4CCN(C)CC4)ccc3OCC)nc12
9.83 u/L
Cc1cc(CC(=O)O)n(C)c1C(=O)c1ccc(Cl)cc1 [ZOMEPIRAC]
11 u/L
Oc1ccccc1O
11 u/L

From here, focus on the item given below.
Enquiry: Give its LIPASE value. Item: "CC(=O)OCC(CCn1cnc2cnc(N)nc21)COC(C)=O"
Return: 9.83 u/L

---

Entries and their BLOOD UREA NITROGEN values follow.
- Organism: Rattus norvegicus
- Run Description: DrugMatrix - Regimen: Daily Repeat
- Type: toxicity, organism-based, Sprague-Dawley
- Set-up: regimen Daily Repeat, gender Male, age 6-8 weeks
- Setup Conditions: in vivo, po, 0 mg/kg, 120 h, tissue Plasma, route oral GAVAGE, dose level Control, time 5 day, vehicle .5 % CMC
Give just the numeric value; mg/dL need not be written.

Observe how each entry below is paired with its result.
CO[C@H]1C[C@@H]2CC[C@@H](C)[C@@](O)(O2)C(=O)C(=O)N2CCCC[C@H]2C(=O)O[C@H]([C@H](C)C[C@@H]2CC[C@@H](O)[C@H](OC)C2)CC(=O)[C@H](C)/C=C(\C)[C@@H](O)[C@@H](OC)C(=O)[C@H](C)C[C@H](C)/C=C/C=C/C=C/1C [SIROLIMUS]
20.5
CC[C@]1(O)CC[C@H]2[C@@H]3CCC4=CCCC[C@@H]4[C@H]3CC[C@@]21C
13
C[C@@H](O)[C@H]1C(=O)N2C(C(=O)O)=C(S[C@@H]3CN[C@H](C(=O)N(C)C)C3)[C@H](C)[C@H]12 [MEROPENEM]
20
C=C(CC)C(=O)c1ccc(OCC(=O)O)c(Cl)c1Cl [ETHACRYNIC ACID]
18.67

Enquiry: Give its BLOOD UREA NITROGEN value. Item: Cc1cnc(C(=O)NCCc2ccc(S(=O)(=O)NC(=O)NC3CCCCC3)cc2)cn1 [GLIPIZIDE]
Return: 17

Enquiry: Give its BLOOD UREA NITROGEN value. Item: C[C@]12C/C(=C/O)C(=O)C[C@@H]1CC[C@@H]1[C@@H]2CC[C@@]2(C)[C@H]1CC[C@]2(C)O [OXYMETHOLONE]
Return: 14.17

---

- Species on record: Rattus norvegicus
- Run Description: DrugMatrix - Regimen: Daily Repeat
- Type: toxicity, organism-based, Sprague-Dawley
- Set-up: regimen Daily Repeat, gender Male, age 6-8 weeks
- Setup Conditions: in vivo, po, 0 mg/kg, 120 h, tissue Plasma, route oral GAVAGE, dose level Control, time 5 day, […]
Entries and their TOTAL BILIRUBIN values follow.

C#C[C@]1(O)CC[C@H]2[C@@H]3CCc4cc(O)ccc4[C@H]3CC[C@@]21C
0.13 mg/dL

Enquiry: Give its TOTAL BILIRUBIN value. Item: "OCCN1CCN(CCCN2c3ccccc3Sc3ccc(C(F)(F)F)cc32)CC1"
Return: 0.2 mg/dL

Enquiry: Give its TOTAL BILIRUBIN value. Item: "CC(C)Cc1ccc(CC(=O)O)cc1"
Return: 0.12 mg/dL

Enquiry: Give its TOTAL BILIRUBIN value. Item: CN(CCOc1ccc(CC2SC(=O)NC2=O)cc1)c1ccccn1 (centres undefined)
Return: 0.1 mg/dL

Enquiry: Give its TOTAL BILIRUBIN value. Item: "CC[C@H](C)C(=O)O[C@H]1C[C@@H](C)C=C2C=C[C@H](C)[C@H](CC[C@@H]3C[C@@H](O)CC(=O)O3)[C@H]21"
Return: 0.17 mg/dL

Enquiry: Give its TOTAL BILIRUBIN value. Item: "CCn1cc(C(=O)O)c(=O)c2cc(F)c(N3CCNCC3)nc21"
Return: 0.13 mg/dL
